// data source = ChEMBL document CHEMBL1201862

- Test system: HCT-15
For each of the compounds below, state its GI50.
Answers are plain numbers, in µM.

{"columns": ["compound", "unitDescriptor", "GI50"],
 "data": [
  ["Cc1cc(N)c2ccccc2[n+]1CCCCCCCCCCNc1cc(C)[n+](CCCCCCCCCC[n+]2c(C)cc(N)c3ccccc32)c2ccccc12", "µM", 1.75]
]}

I need GI50 for every entry listed below, if you could help.
1. O=C1C(CN2CCCC2)CCC1CN1CCCC1 (configuration not stated)
2. O=C(CCl)NNC1=Nc2ccc(Cl)cc2SC1
3. CC(C)[C@@H](C)[C@@]1(C)C[C@@H]1[C@@H](C)[C@H]1CC[C@@H]([C@@H]2CC=C3C[C@@H](O)CC[C@]3(C)C2=O)[C@]1(C)CCO
4. O=C(O)C1C2c3ccccc3C(c3ccccc32)C1C(=O)NCC1CC1 (configuration not stated)

Output:
1: 17.7; 2: 1.81; 3: 5.27; 4: 48.3
